Provenance of the data: the supplement of paper PMC11061612

Tested on: NCI-H1666 (Lung Adenocarcinoma)
Assay: Bliss excess, mean over the matrix (fraction); higher = more synergy
reported-property: Bliss excess

compound	system-tested	reported-property	observed
Cc1c2c(nn1C)CSCc1cc(n(C)n1)CSc1cc(c3ccccc3c1)OCCCc1c(C(=O)O)n(C)c3c-2c(Cl)ccc13 [AZD5991] + CC(=O)O[C@H]1C(=O)[C@@]2(C)[C@H]([C@H](OC(=O)c3ccccc3)[C@]3(O)C[C@H](OC(=O)[C@H](O)[C@@H](NC(=O)c4ccccc4)c4ccccc4)C(C)=C1C3(C)C)[C@]1(OC(C)=O)CO[C@@H]1C[C@@H]2O [Paclitaxel] (first compound max 1 µM, 7x7, partner max 3 µM)	NCI-H1666 (Lung Adenocarcinoma)	Bliss excess	-0.0239
CC1(C)CCC(CN2CCN(c3ccc(C(=O)NS(=O)(=O)c4ccc(NCC5CCOCC5)c([N+](=O)[O-])c4)c(Oc4cnc5[nH]ccc5c4)c3)CC2)=C(c2ccc(Cl)cc2)C1 [Venetoclax] + COc1cc(Nc2ncc3c(n2)-c2ccc(Cl)cc2C(c2c(F)cccc2OC)=NC3)ccc1C(=O)O [Alisertib] (first compound max 1 µM, 7x7, partner max 10 µM)	NCI-H1666 (Lung Adenocarcinoma)	Bliss excess	-0.0713
Cc1c2c(nn1C)CSCc1cc(n(C)n1)CSc1cc(c3ccccc3c1)OCCCc1c(C(=O)O)n(C)c3c-2c(Cl)ccc13 [AZD5991] + C[C@@H](Nc1cc(F)cc(F)c1)c1cc(C(=O)N(C)C)cc2c(=O)cc(N3CCOCC3)oc12 [AZD8186] (first compound max 1 µM, 7x7, partner max 3 µM)	NCI-H1666 (Lung Adenocarcinoma)	Bliss excess	-0.0359

====

Recorded combination Emax by entry
System: SISO (Cervical Carcinoma)
Test: combination Emax (second highest fraction inhibited in the dose matrix, 72 h); higher = more inhibition; extreme values may be limits of the assay

compound	system-tested	combination Emax
COc1cccc2c1C(=O)c1c(O)c3c(c(O)c1C2=O)C[C@@](O)(C(=O)CO)C[C@@H]3O[C@H]1C[C@H](N)[C@H](O)[C@H](C)O1 [Doxorubicin] + Cc1cc2ncnn2cc1Nc1ncc2c(n1)n(C1CCOCC1)c(=O)n2C [AZD7648] (first compound max 1 µM, 7x7, partner max 10 µM)	SISO (Cervical Carcinoma)	0.909
Cc1cc2ncnn2cc1Nc1ncc2c(n1)n(C1CCOCC1)c(=O)n2C [AZD7648] + C[C@@H]1COCCN1C2=NC(=NC(=C2)C3(CC3)[S@](=N)(=O)C)C4=C5C=CNC5=NC=C4 [AZD6738] (first compound max 10 µM, 7x7, partner max 10 µM)	SISO (Cervical Carcinoma)	0.505
Cc1c2c(nn1C)CSCc1cc(n(C)n1)CSc1cc(c3ccccc3c1)OCCCc1c(C(=O)O)n(C)c3c-2c(Cl)ccc13 [AZD5991] + CC1(C)CCC(CN2CCN(c3ccc(C(=O)NS(=O)(=O)c4ccc(NCC5CCOCC5)c([N+](=O)[O-])c4)c(Oc4cnc5[nH]ccc5c4)c3)CC2)=C(c2ccc(Cl)cc2)C1 [Venetoclax] (first compound max 1 µM, 7x7, partner max 1 µM)	SISO (Cervical Carcinoma)	0.151

====

Tested on: GI-ME-N (Neuroblastoma)
Test: Bliss excess, mean over the matrix (fraction); higher = more synergy
Recorded Bliss excess by entry

compound	Bliss excess
Cc1c2c(nn1C)CSCc1cc(n(C)n1)CSc1cc(c3ccccc3c1)OCCCc1c(C(=O)O)n(C)c3c-2c(Cl)ccc13 [AZD5991] + CN(C)CCCOc1ccc(-c2ccc3ncc4c(c3c2)n(C2CCOCC2)c(=O)n4C)cn1 [AZD0156] (first compound max 1 µM, 7x7, partner max 1 µM)	-0.04
C=CCn1c(=O)c2cnc(Nc3ccc(N4CCN(C)CC4)cc3)nc2n1-c1cccc(C(C)(C)O)n1 [AZD1775] + O=C(c1cc(Cc2n[nH]c(=O)c3ccccc23)ccc1F)N1CCN(C(=O)C2CC2)CC1 [Olaparib] (first compound max 1 µM, partner max 10 µM)	-0.0434
